- Test system: U251 CNS
Entry note: the call must match one of T (active), F (inactive)

Record excerpt, results attached:
CC(C)C[C@H](NC(=O)[C@H](Cc1cccc2ccccc12)NC(=O)N1CCOCC1)B(O)O: T
CC(=O)O[C@H]1CC[C@@]2(C)C(=CC[C@@H]3[C@@H]2CC[C@]2(C)C(c4cccnc4)=CC[C@@H]32)C1: F
COc1ccc(N=C2CSc3nnc(-c4cc(F)c(Cl)cc4Cl)n3N2)cc1: F
CN(C)c1cccc2c(S(=O)(=O)N[C@H]3CC[C@H]4[C@@H]5CCc6cc(O)ccc6[C@H]5CC[C@]34C)cccc12: F
COc1ccc(-c2nc3sc(C)cn3c2/C=C/C(=O)c2cc(OC)c(OC)c(OC)c2)cc1: F

Kindly consider the entry below.
Enquiry: Look up the recorded call for `COc1ccc2c(c1)[nH]c(=O)c1c3cc(C)c(C)cc3cn21` in this test.
Return: T

----------
Listing: TGI of selected molecules
- Tested on: SK-MEL-28 melanoma
- Test protocol: NCI tumour cell line growth inhibition, 48 h

Cc1ccc(-[n+]2c3cc(N)c(C)cc3nc3cc(C)c(Nc4ccccc4)cc32)cc1: 1.33 µM
COc1cccc(N2C(=O)C3c4[nH]c5ccccc5c4C4c5ccccc5CCC4C3C2=O)c1 (stereo not drawn): > 10 µM

Note: attention shifts to another entry.
Enquiry: # get_value(readout='TGI', item= CCCC/C=C1\CCC(CN2CCCCC2)C1=O (stereo not drawn) )
Return: 36.7 µM

----------
- System: OVCAR-3 ovarian
- Test protocol: NCI tumour cell line growth inhibition, 48 h
Quantity measured: TGI

Observe how each entry below is paired with its result.
COc1ccc(-c2nn3ncccc3c2-c2ccnc(Nc3ccc(Cl)c(C(F)(F)F)c3)n2)cc1: > 25 µM
COC(=O)CCCc1ccc2c(c1)CC1(C2)Cc2cc3c(cc2C1)CCCC3: > 100 µM
COc1ccc2c(c1)[nH]c(=O)c1c3cc(C)c(C)cc3cn21: < 0.0143 µM
O=C(CNc1nncs1)NO: > 100 µM
CCOC(=O)/C(O)=C1\C(=O)N(C)C(=O)C1c1ccc(OC)c(OC)c1 (centres undefined): > 100 µM
N#CCC(=O)Nc1cccc(C(F)(F)F)c1: > 100 µM

Enquiry: Requested read-out: TGI. Entry: O=C1CC(O)C=C1Nc1ccc(Cl)cc1 (centres undefined)
Return: > 100 µM

Enquiry: Now this one: `CCOC/N=C(/N)NC#N`
Return: > 100 µM

Enquiry: And for `Cc1ccc2[nH]cc(-c3nc(-c4c[nH]c5ncccc45)cs3)c2c1` ?
Return: > 100 µM

----------
- System: A549 NSCLC
- Test protocol: NCI tumour cell line growth inhibition, 48 h; in the data active means GI50 below about 0.43 µM; inactive means the rest
Select the correct class. Options are active, inactive and nothing else.

CCOc1cc2ncc(C#N)c(Nc3ccc(OCc4cccc(F)c4)c(Cl)c3)c2cc1NC(=O)CC1CCSS1 (stereo not drawn): inactive
CCC[CH2][Sn-]([CH2]CCC)([CH2]CCC)[O]c1cc(Cl)c(Cl)cc1Cl: active
COc1ccc(C(=O)/C(Br)=C/C(=O)O)cc1: inactive
CC(=O)O[C@H]1CC[C@@]2(C)C(=CC[C@@H]3[C@@H]2CC[C@]2(C)C(c4cccnc4)=CC[C@@H]32)C1: inactive

Enquiry: Tell me the recorded outcome of this test for CNC(=O)c1cc(OC2CCC(NC(=O)Nc3ccc(Cl)c(C(F)(F)F)c3)CC2)ccn1 (stereo not drawn) .
Return: inactive

Enquiry: Also check `O=C(CN1CCN(c2ncccn2)CC1)Nc1ccc(Cl)cc1C(=O)c1ccccc1Cl`
Return: inactive

Enquiry: Do the same for `CCN(CC)CCOc1nc2ccc(OC)cc2c2c1-c1ccc(OC)cc1C2=O` please
Return: active

Enquiry: Also check `ClCc1cccc(Cn2cnc3c(Cl)ncnc32)c1`
Return: inactive

----------
- Test system: OVCAR-3 ovarian
- Test protocol: NCI tumour cell line growth inhibition, 48 h; in the data active = GI50 below about 0.43 µM; inactive = the rest
Response enum: y for active, n for inactive

Below, 4 molecules whose answers are already recorded.
COc1cc(C2C=C(c3cccc(NC(C)=O)c3)Nc3ncnn32)cc(OC)c1OC (stereo not drawn): y
Cc1cc(-c2ncc(CC(=O)Nc3ccc(-c4cnccn4)cn3)cc2C)ccn1: n
C[C@@H]1C[C@@H](O)[C@]2(O)O[C@@H]3C[C@@]4(C=O)[C@@H](CC[C@@H]5[C@@H]4CC[C@]4(C)[C@@H](C6=CC(=O)OC6)CC[C@]54O)C[C@H]3O[C@@H]2O1: y
CCOC(=O)c1c2c(n3ccc(NC(=O)CCN4CCCC4)cc13)C(=O)c1ncccc1C2=O: n

Enquiry: Could you please tell me the result logged for `Cc1c2c(nn1-c1ccc(S(=O)(=O)NC(=S)Nc3ccccc3)cc1)-c1ccccc1CC2` in this assay?
Return: n

Enquiry: Next record, please: `COc1ccc(-c2nc3sc(C)cn3c2/C=C/C(=O)c2cc(OC)c(OC)c(OC)c2)cc1`
Return: n

Enquiry: Same lookup for `C=C1C(=O)O[C@H]2[C@H]1CC/C(COC(=O)c1cc3cc(F)ccc3[nH]1)=C\CC[C@@]1(C)O[C@@H]21` , please.
Return: n

Enquiry: Similarly, CCOc1cc2ncc(C#N)c(Nc3ccc(OCc4cccc(F)c4)c(Cl)c3)c2cc1NC(=O)CC1CCSS1 (stereo not drawn) ?
Return: n

----------
- Tested on: UO-31 renal
- Test protocol: NCI tumour cell line growth inhibition, 48 h
Quantity measured: TGI

Solved entries (count: 6):
CCOc1cc2ncc(C#N)c(Nc3ccc(OCc4cccc(F)c4)c(Cl)c3)c2cc1NC(=O)CC1CCSS1 (stereo not drawn): > 25 µM
CC1=C(C(=O)Nc2ccccc2C)C(c2ccccc2)C(C(=O)Nc2ccccc2C)=C(C)N1: > 100 µM
Cc1c(C)c(C)c(-n2[nH]c(=O)n(C)c2=O)c(C)c1C: > 100 µM
O=[N+]([O-])C1C(c2ccccc2)C12c1ccccc1-c1ccccc12 (stereo not drawn): 18.8 µM
Cn1c(=O)nc2n(-c3ccc(Cl)cc3)c3ccc(Cl)cc3nc-2c1=O: 39.8 µM
COc1cc2c(cc1C[N+](C)(C)CSc1ccccc1)-c1ccccc1CC2: 28.6 µM

Okay, now this compound:
Enquiry: Look up TGI with UO-31 renal for this compound: `N#CCC(=O)Nc1cccc(C(F)(F)F)c1`
Return: > 100 µM

----------
Some molecules, each annotated with its measured TGI.
- System: SF-295 CNS
- Test protocol: NCI tumour cell line growth inhibition, 48 h

CC(=O)C1CC(C)=CCC12C(=O)Nc1ccccc12 (centres undefined): > 100 µM
CCOc1ccccc1NC(=O)C(=O)CC(=O)c1c(C)n([O-])c2ccccc2[n+]1=O: > 100 µM
COc1cc(C2C=C(c3cccc(NC(C)=O)c3)Nc3ncnn32)cc(OC)c1OC (centres undefined): > 32.8 µM

Enquiry: What value of TGI on SF-295 CNS does `COc1cc(-c2nc3cc(F)ccc3s2)ccc1O` have?
Return: > 100 µM

----------
TGI values by entry
- Tested on: T-47D breast
- Test protocol: NCI tumour cell line growth inhibition, 48 h
Response body: numeric value in µM, unit text excluded.

Field: example entries. Status: answers known.
O=[N+]([O-])C1C(c2ccccc2)C12c1ccccc1-c1ccccc12 (stereo unspecified): 23.2
COc1cc(-c2nc3cc(F)ccc3s2)ccc1O: 15.3
CC(=O)O[C@H]1CC[C@@]2(C)C(=CC[C@@H]3[C@@H]2CC[C@]2(C)C(c4cccnc4)=CC[C@@H]32)C1: 55.7

Enquiry: Test system T-47D breast; read-out TGI; what value for `Cc1ccc(C(=O)N(C2CCCCC2)C2CCCCC2)cc1N=NN(C)C` ?
Return: 38.7

Enquiry: Moving on to `N=C1C(c2nc(-c3ccc(Br)cc3)cs2)=C(O)CN1Cc1cccnc1`
Return: 56.1

----------
- Test system: UACC-257 melanoma
- Test protocol: NCI tumour cell line growth inhibition, 48 h
TGI for assorted compounds

Some compounds with recorded TGI:
Cc1ccc(C)n2c1nc1ccc3ccccc3c12: > 100 µM
Cc1cnc2c(C)ccc([N+](=O)[O-])c2c1NCCCN(C)C: > 100 µM

Enquiry: Query (compound): O=C1CC(O)C=C1Nc1ccc(Cl)cc1 (stereo not drawn) ; field requested: TGI
Return: > 100 µM

Enquiry: // repeat for `CCCCOC(=O)CNC(=O)OCCCCC#CC#CCCCCOC(=O)NCC(=O)OCCCC` and report
Return: > 100 µM

Enquiry: Now give it for `COc1nc(N(C)O)nc(N(C)O)n1` too.
Return: > 100 µM

Enquiry: Cool, now `CCOC(C[Se]CC(OCC)OCC)OCC`
Return: > 100 µM

Enquiry: And then N/N=C(\C(=O)Nc1c(Cl)cc([N+](=O)[O-])cc1Cl)C(c1cnc2ccc([N+](=O)[O-])cc2n1)[N+](=O)[O-] (stereo not drawn) , what is it?
Return: > 100 µM

Enquiry: What do you get for CC(C)(C)OC(=O)n1cc(C2CNC(=O)C23CCC(=O)N3Cc2ccccc2)c2ccccc21 (stereo not drawn) ?
Return: 65.2 µM
